B1: TPR t1 (parent)
chain: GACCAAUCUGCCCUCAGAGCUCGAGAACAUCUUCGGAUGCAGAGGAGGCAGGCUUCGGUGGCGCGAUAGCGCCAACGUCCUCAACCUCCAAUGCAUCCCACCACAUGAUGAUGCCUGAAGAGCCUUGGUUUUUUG

Variants of: B1
Experiment: polymerase ribozyme fitness, log enrichment relative to wild type (log ratio); higher = more active; in vitro selection for triplet polymerase activity
polymerase ribozyme fitness (log ratio) overview

In the examples that follow, each entry is paired with its recorded polymerase ribozyme fitness (log ratio).
Sequence change | polymerase ribozyme fitness (log ratio)
U7C C49A G61U A83C U129C | -0.315
G42A C86A U106G | -5.73
C4G | -1.33
G69C A83U U129A | -1.71

Q: Tell me the measured polymerase ribozyme fitness (log ratio) of A27U G135U , please.
Result: -4.15

Q: Tell me the measured polymerase ribozyme fitness (log ratio) of G42U A43G G45U U55G C72A , please.
Result: -0.969

Q: Tell me the measured polymerase ribozyme fitness (log ratio) of A5U C34G , please.
Result: -6.92

Q: Tell me the measured polymerase ribozyme fitness (log ratio) of C70G A105U G113A , please.
Result: -6.59

Q: Tell me the measured polymerase ribozyme fitness (log ratio) of G63U G117U U129G , please.
Result: -6.2

Q: Tell me the measured polymerase ribozyme fitness (log ratio) of C34A G71A U78C C94U U125A , please.
Result: -5.82

Ref: the RNAGym collection of RNA variant scans (doi:10.1073/pnas.2313332121)
